- Tested on: PPARg:RXRa IVT, anti-PPARg (NR concentration 270 nM, RXRa partner concentration 90 nM)
- test_summary: PBM binding z-score (relative to random genomic background probes); higher = stronger binding; sequences stand for … in GC…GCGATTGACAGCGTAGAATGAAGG
recorded_endpoint: PBM binding z-score
Write the value as a bare number.

ACTATTAGTTGATTTAGGGCAACCGATACGACGC; 2.39
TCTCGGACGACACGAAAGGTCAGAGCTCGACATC; 1.09
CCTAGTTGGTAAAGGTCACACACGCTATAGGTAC; 4.31

Given the sequence ACAGACACGTGATGAAGGTAACTCAGGCTATCAT , what is its reported PBM binding z-score?
-0.0146

Next entry: CTTCCAAGGTCATAGGAGGTCAGTGAAGACAGAT
4.67

Next entry: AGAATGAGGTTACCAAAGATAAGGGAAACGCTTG
3.34

Next entry: TGTCAAAGTTCAAAGGTAACGTCAGTATCCACAC
4.74

Next entry: AGAACGAGGGCACACTGAGTTGATAGCAGAGTAG
3.8

Next entry: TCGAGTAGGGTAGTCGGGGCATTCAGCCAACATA
0.997

Next entry: CCTATTAGTTGACCATAAGGGCGACCGAAGCTCG
0.201

Next entry: TCTGCTAGGTCAGATGGTCAGCTAACGAGCTGCC
2.86

Next entry: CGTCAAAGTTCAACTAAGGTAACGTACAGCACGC
2.54
